Below, each entry is listed with its recorded Percent survival, 0 h after 1 h irradiation.
# Test system: Ceratitis capitata
# PROTOCOL: Comparative studies on the photoinsecticidal activity of different sensitizing compounds (percent survival after irradiation)
# Type: in vivo
# ASSAY CONTEXT: 6 μmoles/ml photosensitizer for 24 h; 1220 μE s^−1 m^−2 for 1 h; 0 h after irradiation
Could you give me the number in %? Just the number is fine.

Some solved entries appear below for comparison.
{"COMPOUND": "COc1ccc(NC(N)=S)cc1", "MEASURED VALUE": 100}
{"COMPOUND": "O=C([O-])c1cccc2sc3ccccc3c(=O)c12.[Na+]", "MEASURED VALUE": 100}
{"COMPOUND": "CC1=C(CCC(=O)O)c2cc3[nH]c(cc4nc(cc5[nH]c(cc1n2)c(C)c5C(C)O)C(C)=C4C(C)O)c(C)c3CCC(=O)O (stereo not drawn)", "MEASURED VALUE": 60}
{"COMPOUND": "C[n+]1ccc(-c2c3nc(c(-c4cc[n+](C)cc4)c4ccc([nH]4)c(-c4cc[n+](C)cc4)c4nc(c(-c5ccccc5)c5ccc2[nH]5)C=C4)C=C3)cc1", "MEASURED VALUE": 10}

Tell us which Percent survival, 0 h after 1 h irradiation value is on record for O=C1OC2(c3cc(I)c(O)c(I)c3Oc3c2cc(I)c(O)c3I)c2c(Cl)c(Cl)c(Cl)c(Cl)c21
85

Tell us which Percent survival, 0 h after 1 h irradiation value is on record for Nc1c(S(=O)(=O)[O-])ccc2c1C(=O)c1ccccc1C2=O.[Na+]
100

These entries and their values trace back to patent US6410567B1.
